test system: NCI/ADR-RES ovarian; experiment: NCI tumour cell line growth inhibition, 48 h
Endpoint name: TGI

Some molecules with known TGI results, for comparison:
COc1ccc(-c2nc(SCC(=O)N/N=C/c3ccc([N+](=O)[O-])cc3)[nH]c2-c2ccc(OC)cc2)cc1 : 79.7 µM
C=CC(Br)(CBr)CCC1OC1(C)C (stereo not given) : 58.7 µM
O=C(OC1C#CCSCC#C/C=C\1)c1cnc2ccccc2n1 (stereo not given) : > 100 µM
Cc1nn(C(=O)c2ccc(Cl)cc2)c2c1C(c1ccccc1)SC(N)=N2 (stereo not given) : > 10 µM
CC1(C)CCCCC1/C=C/C(CC(O)(C(F)(F)F)C(F)(F)F)=N\Nc1ccc([N+](=O)[O-])cc1[N+](=O)[O-] (stereo not given) : > 100 µM

For every item in the list below, what is its measured TGI?
1. CN1CCN(Cn2nc(-c3ccccc3)n(/N=C/c3ccc(-c4ccc(Cl)cc4Cl)o3)c2=S)CC1
2. COCN1C(=O)[C@@H]2CCCN2C(=O)c2ccc(Cl)cc21
3. CCOC(=O)C(=NN(C)c1ncccc1N)C(=O)OCC
4. Cc1ccc(OC2CC(n3cnc4c(=O)[nH]c(Br)nc43)OC2Oc2ccc(C)cc2)cc1 (stereo not given)

["56.2 µM", "> 100 µM", "> 100 µM", "69.2 µM"]
